- system: Vibrio cholerae neuraminidase (Vibrio cholerae serotype O1, UniProt P0C6E9)
- Sequence (P0C6E9 25-781): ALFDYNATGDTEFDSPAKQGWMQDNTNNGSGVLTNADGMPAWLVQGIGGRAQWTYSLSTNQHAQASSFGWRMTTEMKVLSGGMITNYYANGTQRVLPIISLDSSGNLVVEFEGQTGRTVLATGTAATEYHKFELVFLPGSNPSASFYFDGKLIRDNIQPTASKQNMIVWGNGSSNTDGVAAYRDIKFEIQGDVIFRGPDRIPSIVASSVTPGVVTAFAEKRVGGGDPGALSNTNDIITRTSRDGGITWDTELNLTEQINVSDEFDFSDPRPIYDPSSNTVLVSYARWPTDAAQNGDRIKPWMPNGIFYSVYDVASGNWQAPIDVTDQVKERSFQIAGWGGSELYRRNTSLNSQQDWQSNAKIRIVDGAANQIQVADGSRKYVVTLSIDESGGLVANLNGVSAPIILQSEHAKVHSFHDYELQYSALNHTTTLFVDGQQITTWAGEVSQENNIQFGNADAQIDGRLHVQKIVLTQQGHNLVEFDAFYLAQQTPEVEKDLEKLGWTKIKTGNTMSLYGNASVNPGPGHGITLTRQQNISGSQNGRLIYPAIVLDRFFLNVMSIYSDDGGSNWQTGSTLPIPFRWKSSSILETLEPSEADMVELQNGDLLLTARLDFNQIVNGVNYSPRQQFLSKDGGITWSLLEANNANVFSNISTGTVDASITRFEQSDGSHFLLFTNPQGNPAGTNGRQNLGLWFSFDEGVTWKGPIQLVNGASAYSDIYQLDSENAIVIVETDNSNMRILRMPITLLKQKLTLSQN
- Assay type: biochemical
endpoint label: Vmax (O.D./mU)

>  <molecule>
CC(=O)NC1C(O)CC(OCC2OC(OCC[Si](C)(C)C)C(O)C(O)C2O)(C(=O)O)OC1C(O)C(O)CO (stereo not shown) [Compound 23a, αDNeuAc (2-6) βDGal-OCH2 CH2 Si (CH3)3, reference compound]

>  <endpoint unit>
O.D./mU

>  <observed measurement>
2.2

$$$$
>  <molecule>
CC(=O)N[C@H]1[C@H]([C@H](O)[C@H](O)CO)O[C@@](O[C@@H](C)[C@H]2O[C@@H](OCC[Si](C)(C)C)[C@H](O)[C@@H](O)[C@H]2O)(C(=O)O)C[C@@H]1O [Compound 16b]

>  <endpoint unit>
O.D./mU

>  <observed measurement>
0.37

$$$$
>  <molecule>
CC(=O)N[C@H]1[C@H]([C@H](O)[C@H](O)CO)O[C@@](O[C@H](C)[C@H]2O[C@@H](OCC[Si](C)(C)C)[C@H](O)[C@@H](O)[C@H]2O)(C(=O)O)C[C@@H]1O [Compound 16a]

>  <endpoint unit>
O.D./mU

>  <observed measurement>
1.42

$$$$
>  <molecule>
CC(=O)N[C@H]1[C@H]([C@H](O)[C@H](O)CO)O[C@@](OC[C@H]2O[C@@H]3OC(C)(C)O[C@@H]3[C@H]3OC(C)(C)O[C@H]32)(C(=O)O)C[C@@H]1O [Compound 23b, reference compound]

>  <endpoint unit>
O.D./mU

>  <observed measurement>
4.5

$$$$
